biological target: GLP-1R (Homo sapiens, UniProt P43220); experiment: GLP-1R Activation - cAMP Assay; type: cell-based; conditions: cAMP increase in CHO cells stably expressing GLP-1R; each compound run on one of the two cAMP assays (Assay 1 or Assay 2, not specified)
Sequence (P43220 24-463): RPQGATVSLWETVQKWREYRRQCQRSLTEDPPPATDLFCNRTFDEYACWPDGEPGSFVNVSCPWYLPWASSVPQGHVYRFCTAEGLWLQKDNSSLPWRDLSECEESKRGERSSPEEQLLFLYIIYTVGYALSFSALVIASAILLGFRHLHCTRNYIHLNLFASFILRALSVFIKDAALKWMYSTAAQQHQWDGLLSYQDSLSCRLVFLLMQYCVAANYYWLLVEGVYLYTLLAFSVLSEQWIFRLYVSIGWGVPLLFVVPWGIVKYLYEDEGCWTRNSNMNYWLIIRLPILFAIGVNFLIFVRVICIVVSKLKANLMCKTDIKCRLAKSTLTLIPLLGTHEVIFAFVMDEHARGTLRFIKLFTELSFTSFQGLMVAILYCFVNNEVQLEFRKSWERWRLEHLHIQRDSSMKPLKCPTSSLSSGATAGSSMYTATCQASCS
Task for the reader: assign each of the following compounds its reported pEC50.
For clarity, pEC50 is expressed as the negative log10 of concentration in mol/L.

(Q) Give GLP-1R (Homo sapiens, UniProt P43220) pEC50 for Cc1ccc(COc2cccc(-c3cc(F)c(Cc4nc5ccc(C(=O)O)cc5n4[C@@H]4COCC4(C)C)cc3F)n2)cc1
(A) 9.88

(Q) // lookup pEC50 | system=GLP-1R (Homo sapiens, UniProt P43220) | key= Cn1c(=O)sc2cc(COc3cccc(-c4cc(F)c(Cc5nc6ccc(C(=O)O)cc6n5C[C@@H]5CCO5)cc4F)n3)ccc21
(A) 9.40

(Q) Request body: readout pEC50, system GLP-1R (Homo sapiens, UniProt P43220), query CC1(C)COC[C@H]1n1c(Cc2cc(F)c(-c3ccc(F)c(OCc4cnc(-n5ccnn5)cc4Cl)n3)cc2F)nc2c(F)cc(C(=O)O)cc21 . Return the value.
(A) 10.96

(Q) Param readout= pEC50; system= GLP-1R (Homo sapiens, UniProt P43220); entry= Cc1cc(Cc2nc3ccc(C(=O)O)cc3n2[C@@H]2COCC2(C)C)c(Cl)cc1-c1cccc(OCc2ccc(C#N)cc2F)n1 ; returns value.
(A) 10.10

(Q) Short answer please: pEC50, GLP-1R (Homo sapiens, UniProt P43220), entry N#Cc1ccc(COc2cccc(-c3cc(F)c(Cc4nc5ccc(C(=O)O)cc5n4C[C@@]45CO[C@@H](CCO4)C5)cc3F)n2)c(F)c1 (racemic)
(A) 8.68

(Q) Give GLP-1R (Homo sapiens, UniProt P43220) pEC50 for COCCn1c(Cc2cc(F)c(-c3cccc(OCc4ccc5c(c4)CN(C(=O)OC)C5)n3)cc2Cl)nc2c(F)cc(C(=O)O)cc21
(A) 9.62

(Q) Fill in the recorded pEC50 for this compound, with GLP-1R (Homo sapiens, UniProt P43220) as test system: CC(C)(O)C#Cc1cc(C(=O)O)cc2c1nc(Cc1cc(F)c(-c3cccc(OCc4ccc(C#N)cc4F)n3)cc1F)n2C1COCC1(C)C (stereo not drawn)
(A) 9.11

(Q) Form field - read-out: pEC50; system: GLP-1R (Homo sapiens, UniProt P43220); submitted item: COc1cc(Cl)ncc1COc1cccc(-c2cc(F)c(Cc3nc4ccc(C(=O)O)cc4n3C3COCC3(C)C)cc2F)n1 (stereo not drawn)
(A) 10.68

(Q) Return pEC50 measured with GLP-1R (Homo sapiens, UniProt P43220) given this compound: CC1(C)COC[C@H]1n1c(Cc2cc(F)c(-c3cccc(OCc4ccc(-c5cnn(C(F)F)c5)cc4)n3)cc2F)nc2ccc(C(=O)O)cc21
(A) 9.96

(Q) Query the reported pEC50 for GLP-1R (Homo sapiens, UniProt P43220); item: CC1(C)COCC1n1c(Cc2cc(F)c(-c3ccc(F)c(OCc4ccc(C(F)(F)F)cc4F)n3)cc2F)nc2c(F)cc(C(=O)O)cc21 (stereo not drawn)
(A) 10.09

(Q) Hi! What's the reported pEC50 for CO[C@@H]1CC[C@@H]1n1c(Cc2cc(F)c(-c3cccc(OCc4ccc(C#N)cc4F)n3)cc2F)nc2ccc(C(=O)O)cc21 on GLP-1R (Homo sapiens, UniProt P43220)?
(A) 8.30

(Q) Test system GLP-1R (Homo sapiens, UniProt P43220); read-out pEC50; what value for CC1(C)COC[C@H]1n1c(Cc2ccc(-c3ccc(F)c(OCc4ccc(C#N)cc4F)n3)cc2F)nc2c(F)cc(C(=O)O)cc21 ?
(A) 10.60

(Q) Enter reported pEC50 observed with GLP-1R (Homo sapiens, UniProt P43220) for COCCn1c(Cc2cc(F)c(-c3cccc(OCc4cnc(-c5cn(C)nn5)cn4)n3)cc2F)nc2ccc(C(=O)O)cc21
(A) 8.71

(Q) Tell me reported pEC50 for CC1(C)COC[C@H]1n1c(Cn2cc(F)c(-c3cccc(OCc4ccc(C#N)cc4F)n3)cc2=O)nc2c(F)cc(C(=O)O)cc21 , tested with GLP-1R (Homo sapiens, UniProt P43220).
(A) 10.66

(Q) Short answer please: pEC50, GLP-1R (Homo sapiens, UniProt P43220), entry CC1(C)COC[C@H]1n1c(Cc2c(F)cc(-c3ccc(F)c(OCc4ccc(C#N)cc4F)n3)c(F)c2F)nc2c(F)cc(C(=O)O)cc21
(A) 9.60

(Q) Reported pEC50 for GLP-1R (Homo sapiens, UniProt P43220), given CC1(C)COC[C@H]1n1c(Cc2cc(F)c(-c3cccc(OCc4ccc(Cl)c(F)c4)n3)cc2F)nc2ccc(C(=O)O)cc21 ?
(A) 9.61

(Q) Lab note: need pEC50 for Cc1cc(Cc2nc3ccc(C(=O)O)cc3n2[C@@H]2COCC2(C)C)c(Cl)cc1-c1cccc(OCc2ccc(C#N)cc2)n1 on GLP-1R (Homo sapiens, UniProt P43220), anyone have it?
(A) 10.11

(Q) Look up pEC50 with GLP-1R (Homo sapiens, UniProt P43220) for this compound: CC1(C)COC[C@@H]1n1c(Cc2cc(F)c(-c3cccc(OCc4ccc(C#N)cc4F)n3)cc2F)nc2ccc(C(=O)O)cc21
(A) 9.49

(Q) Given the entry CO[C@H](C)Cn1c(Cc2cc(F)c(-c3ccc(F)c(OCc4ccc(C#N)cc4F)n3)cc2F)nc2c(F)cc(C(=O)O)cc21 , what pEC50 was observed with GLP-1R (Homo sapiens, UniProt P43220)?
(A) 9.25

(Q) Query the reported pEC50 for GLP-1R (Homo sapiens, UniProt P43220); item: CC1(C)COC[C@H]1n1c(Cc2cc(F)c(-c3cccc(OCc4ccc(Cl)cc4F)n3)cc2F)nc2cc(Cl)c(C(=O)O)cc21
(A) 9.25

(Q) Hi! What's the reported pEC50 for CC1(C)COC[C@H]1n1c(Cc2ccc(-c3ccc(F)c(OCc4cnc(-n5ccnn5)cc4Cl)n3)cc2F)nc2ccc(C(=O)O)cc21 on GLP-1R (Homo sapiens, UniProt P43220)?
(A) 10.82

(Q) Requested read-out pEC50, target or system GLP-1R (Homo sapiens, UniProt P43220), entry COC(C)(C)C(C)n1c(Cc2cc(F)c(-c3cccc(OCc4ccc(Cl)cc4F)n3)cc2F)nc2ccc(C(=O)O)cc21 (stereo not drawn)
(A) 9.45

(Q) For the record CC1(C)COC[C@H]1n1c(Cc2cc(F)c(-c3cccc(OCc4ccc(Cl)nc4F)n3)cc2F)nc2ccc(C(=O)O)cc21 , what value of pEC50 is listed for GLP-1R (Homo sapiens, UniProt P43220)?
(A) 9.86

(Q) Checklist item: pEC50 tested on GLP-1R (Homo sapiens, UniProt P43220), entry COC[C@@]1(C)COCC1n1c(Cc2cc(F)c(-c3cccc(OCc4ccc(Cl)cc4F)n3)cc2F)nc2ccc(C(=O)O)cc21 (single isomer, unassigned) [Example 546] , value?
(A) 9.15
